molecular target: Gabapentin binding site (Rattus norvegicus, UniProt P54290); assay: [3H]-gabapentin binding assay, Method 2 (crude rat brain membranes); settings: compound 10 μM, 20 nM [3H]-gabapentin
Sequence (P54290 25-1091): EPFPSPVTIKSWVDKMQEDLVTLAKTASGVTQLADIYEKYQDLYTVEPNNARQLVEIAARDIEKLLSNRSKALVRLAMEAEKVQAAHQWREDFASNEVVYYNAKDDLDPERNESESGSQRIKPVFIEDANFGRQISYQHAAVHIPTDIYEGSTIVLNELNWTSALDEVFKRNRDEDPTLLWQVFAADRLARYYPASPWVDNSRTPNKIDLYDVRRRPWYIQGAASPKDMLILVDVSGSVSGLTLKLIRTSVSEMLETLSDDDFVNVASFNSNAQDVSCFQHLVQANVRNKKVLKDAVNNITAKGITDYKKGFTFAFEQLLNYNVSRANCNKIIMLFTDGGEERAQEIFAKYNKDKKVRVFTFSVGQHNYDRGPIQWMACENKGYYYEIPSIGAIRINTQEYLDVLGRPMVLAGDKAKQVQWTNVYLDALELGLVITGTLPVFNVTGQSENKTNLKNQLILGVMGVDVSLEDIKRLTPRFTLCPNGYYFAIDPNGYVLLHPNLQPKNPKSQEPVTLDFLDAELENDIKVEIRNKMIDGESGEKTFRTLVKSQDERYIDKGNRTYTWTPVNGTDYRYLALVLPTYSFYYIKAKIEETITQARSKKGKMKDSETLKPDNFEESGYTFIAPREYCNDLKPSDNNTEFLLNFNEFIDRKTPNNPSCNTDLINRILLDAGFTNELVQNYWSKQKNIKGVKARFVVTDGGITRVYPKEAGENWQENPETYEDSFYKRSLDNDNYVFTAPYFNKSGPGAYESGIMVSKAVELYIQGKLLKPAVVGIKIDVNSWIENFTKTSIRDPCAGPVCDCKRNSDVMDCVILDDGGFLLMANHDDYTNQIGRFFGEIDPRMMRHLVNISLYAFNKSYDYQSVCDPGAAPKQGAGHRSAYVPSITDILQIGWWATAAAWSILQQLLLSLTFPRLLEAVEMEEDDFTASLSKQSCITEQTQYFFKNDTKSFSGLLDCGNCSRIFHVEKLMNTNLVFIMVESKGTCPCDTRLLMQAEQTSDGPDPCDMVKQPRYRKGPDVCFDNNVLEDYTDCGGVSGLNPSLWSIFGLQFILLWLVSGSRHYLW
MEASURE_NAME: % inhibition 10 μM

For orientation, consider the following solved cases.
| SMILES_REPRESENTATION | OBSERVED_MEASUREMENT |
| --- | --- |
| N[C@@H](C[C@H]1CCCO1)C(=O)O | 1% (±1) |
| N[C@H](C(=O)O)[C@@H]1CCCC[C@H]1O | 6% (±1) |
| N[C@@H](Cc1ccco1)C(=O)O | 16% (±3) |

Lookup result for N[C@@H](C[C@@H]1CCCO1)C(=O)O ; measured % inhibition 10 μM: 0% (±2)

###

experiment: Pharmacokinetic profile in mice; type: in vivo; conditions: mouse, plasma, 100 mg/kg IV or PO, read-out: Bioavailability (% F)
MEASURE_NAME: bioavailability

Lookup result for N[C@@H](C[C@@H]1CCCO1)C(=O)O ; measured bioavailability: ~100%

###

assay: Pharmacokinetic profile in mice; type: in vivo; conditions: mouse, plasma, 50 mg/kg IV or PO, read-out: Bioavailability (% F)
MEASURE_NAME: bioavailability
Hey, just the number and the unit after it is fine.

Lookup result for N[C@H](C(=O)O)[C@@H]1CCCC[C@H]1O ; measured bioavailability: 88.4%

###

In this section, each of the molecules is paired with its reported % inhibition 1 μM.
target: Gabapentin binding site (Rattus norvegicus); experiment: [3H]-gabapentin binding assay, Method 2 (crude rat brain membranes); conditions: compound 1 μM, 20 nM [3H]-gabapentin

For orientation, consider the following solved cases.
| MOLECULE | % inhibition 1 μM |
| --- | --- |
| N[C@@H](C[C@H]1CCCO1)C(=O)O [Compound 7] | 19% (±4) |
| N[C@@H](C[C@@H]1CCCO1)C(=O)O [Compound 8] | 11% (±1) |

Lookup result for N[C@H](C(=O)O)[C@@H]1CCCC[C@H]1O [Compound 18] ; measured % inhibition 1 μM: 21% (±3)

Lookup result for N[C@@H](Cc1ccco1)C(=O)O [(2S)-Compound, (2S)-3-(2-furyl)alanine] ; measured % inhibition 1 μM: 61% (±8)

###

test: Pharmacokinetic profile in dogs; format: in vivo; details: in vivo; one female Beagle dog; 25 mg/kg oral and IV
MEASURE_NAME: bioavailability (%)
Enter your answer as a number in %; do not include the unit.

Lookup result for N[C@H](C(=O)O)[C@@H]1CCCC[C@H]1O [Compound 18] ; measured bioavailability: 97

The reported numbers originate from patent US9233913B2.
